B1: HDV Ribozyme (parent)
chain: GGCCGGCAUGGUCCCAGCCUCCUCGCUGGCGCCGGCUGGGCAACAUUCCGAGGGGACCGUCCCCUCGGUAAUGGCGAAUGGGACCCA

Variants of: B1
testDetails: self-cleavage, relative activity (ratio to wild type); higher = more cleavage; co-transcriptional
Entries and their self-cleavage values follow.
# respond with the number and nothing more

itemSequence	self-cleavage
GGCCGGCAUGGUCCCAGUCUCCUCGCUGGCGCCGGCUGGGCAACAUUCCGAGGGGACCGUCCCCUCGGUAAUGGCGAAUGGGACCAA [C18U C86A]	0.82
GGCCGGCACGGUCCCAGCCUCCUCGCUGGCGCCGGCUGGGCAACAUUCCGAGAGGACCGUCCCCUCGGUAAUGGCGAAUGGGACCCA [U9C G53A]	1.01
GGCCGGCAUGGUCCCAGCCUCCUCGCUGGCGCCGGCUGGGCAACAUUCCGAGGAGACGGUCCCCUCGGUAAUGGCGAAUGGGACCCA [G54A C58G]	1.03
GGCCGGCAUGGUCCCAGCCUCCUCGCUGGCGCCGGCUGGGCAACAUUCCGAGGGGACCGUCCCCUCGGUAAUCGCGAAUGGGAACCA [G73C C84A]	0.277

Per the records, this variant ( GGCCGGCAUGGUCCUAGCCACCUCGCUGGCGCCGGCUGGGCAACAUUCCGAGGGGACCGUCCCCUCGGUAAUGGCGAAUGGGACCCA [C15U U20A] ) has self-cleavage equal to 0.0692

Input GGCCGGCAUGGUCCCAGCCUCCUCGCUGGCGCCGGCUGGGCAACAUUCCGGGGGGACCGUCCGCUCGGUAAUGGCGAAUGGGACCCA [A51G C63G] . Output self-cleavage: 0.538

Source of measurements: the RNAGym collection of RNA variant scans (doi:10.7554/elife.80360)
